System: Saccharomyces cerevisiae
Assay: protein stability index of tFT-peptide fusion (C-terminal peptide) (PSI (0-1 scale)); higher = more stable (slower turnover)
Conditions: genetic background: wild type; temperature: 30 C
The following sequences are shown together with reported protein stability index values.
Respond with the number and no other words.

Here is how some sequences turned out for protein stability index.
polymer_sequence=SKKRKRNKKKGE numeric_result=0.74
polymer_sequence=PTPPRRPLSFSP numeric_result=0.653
polymer_sequence=AKRLYLLTNRND numeric_result=0.634
polymer_sequence=RLFLLIECSSGF numeric_result=0.395
polymer_sequence=CPPLSPPLLLLL numeric_result=0.667

Input: protein stability index for YLIGRIIYFFGR ?
Output: 0.582

Input: Field request: protein stability index | item: LPFTLLPPVLSL
Output: 0.596

Input: Reported protein stability index for KKNAHANKIGND : what is it?
Output: 0.639

Input: Tell me the measured protein stability index of AILPFGLLPTHR , please.
Output: 0.745

Input: Data request, read-out protein stability index, for GGVGRRVRLGAE
Output: 0.625

====

System: Saccharomyces cerevisiae
Experiment: protein stability index of tFT-peptide fusion (C-terminal peptide) (PSI (0-1 scale)); higher = more stable (slower turnover)
Conditions: genetic background: wild type; temperature: 30 C
RECORDED ENDPOINT: protein stability index
No unit in the answer, please; the number alone is enough.

Known protein stability index results, listed for orientation:
polymer_sequence=GFCCLGGVRPSV numeric_result=0.655
polymer_sequence=HRTSSCESSPLA numeric_result=0.737
polymer_sequence=GGRGGCGCGWVV numeric_result=0.682

Input: So what does the record say about protein stability index for CKRWGVVSYVFV ?
Output: 0.493

Input: Quick one: protein stability index for FCDFSPPARSFP ?
Output: 0.76

Input: Quick check: protein stability index of AGVDKWLMCEVS ?
Output: 0.695

====

Examples of sequences with documented protein stability index follow.
Tested on: Saccharomyces cerevisiae
Assay: protein stability index of tFT-peptide fusion (C-terminal peptide) (PSI (0-1 scale)); higher = more stable (slower turnover)
Conditions: genetic background: doa10 deletion; temperature: 30 C

polymer_sequence=PGRHSVRFVFVC recorded_endpoint="protein stability index" result=0.113
polymer_sequence=LFLSIFFFHLLF recorded_endpoint="protein stability index" result=0.439

Input: Return reported protein stability index; argument: CFFSLLLLIFSV
Output: 0.349

Input: Tell me the measured protein stability index of ILDRRPRTFALV , please.
Output: 0.0946

Input: Any idea what its protein stability index is? The sequence is FLASLCFFPLLC
Output: 0.496

Input: Need protein stability index, item PPLPPPPASVPP
Output: 0.648

Input: Reported protein stability index for VQVLVAIMDGRM : what is it?
Output: 0.38

Input: Suppose we examine the sequence LEVHGSCIFICV ; what protein stability index value has been reported?
Output: 0.336

Input: protein stability index lookup needed for RFFVLSFFFLVS , thanks.
Output: 0.209

Input: State the recorded protein stability index for this entry: FFLFFLSFGCFL
Output: 0.455

Input: Recorded protein stability index of SCCLLICIFFIF , please.
Output: 0.227

Input: Returns the measured protein stability index for the input sequence. Input: GVMSICRWMISV
Output: 0.263

Input: Returns the measured protein stability index for the input sequence. Input: KWGRFQQVMVIN
Output: 0.136

Input: Any idea what its protein stability index is? The sequence is LSTPPLLPTPPS
Output: 0.672

Input: Reported protein stability index for FFFFPVYFIFVV : what is it?
Output: 0.259

Input: Fill in the blank: the reported protein stability index of AFWLFSGIARLA is ____.
Output: 0.221

Input: Given IYEAFLVFCLCG , state its recorded protein stability index.
Output: 0.284

Input: So what does the record say about protein stability index for CLTGWFGIFSAP ?
Output: 0.695

Input: Query (sequence): FFSPFFFFLFRL ; field requested: protein stability index
Output: 0.483

====

Tested on: Saccharomyces cerevisiae
Assay: protein stability index of tFT-peptide fusion (C-terminal peptide) (PSI (0-1 scale)); higher = more stable (slower turnover)
Conditions: genetic background: cdc34-1; temperature: 37 C
RECORDED ENDPOINT: protein stability index
Answer as a number with no unit attached.

Solved cases (10 shown):
polymer_sequence=FLSCSRRPLRCW numeric_result=0.41
polymer_sequence=CLCVLVSFFFGL numeric_result=0.41
polymer_sequence=GLFAVWVVGVWC numeric_result=0.0437
polymer_sequence=LAFMYFVCPRLA numeric_result=0.598
polymer_sequence=AVRLPFPLLVHL numeric_result=0.205
polymer_sequence=SFLVRFVYFFAL numeric_result=0.54
polymer_sequence=WDLYFSVVYRVV numeric_result=0.35
polymer_sequence=VFFCLFVLFLSG numeric_result=0.302
polymer_sequence=KYQVIILQTRKI numeric_result=0.578
polymer_sequence=VFIVVEFRLSLY numeric_result=0.122

Input: Which protein stability index is reported for this sequence? TEVGAWLLLCRC
Output: 0.271

Input: Fill in: protein stability index of CSPAFRPIVFVL is ___
Output: 0.277

====

Test system: Saccharomyces cerevisiae
Assay: protein stability index of tFT-peptide fusion (C-terminal peptide) (PSI (0-1 scale)); higher = more stable (slower turnover)
Conditions: genetic background: doa10 deletion; temperature: 30 C
Tick MET if protein stability index is 0.3 or greater. Tick NOT MET if protein stability index is less than 0.3.

Input: Record RNNLHKKIRRGY ; criterion: protein stability index no lower than 0.3. Met?
Output: NOT MET

Input: Can RRVLVVPCIWHM be said to have protein stability index at or above 0.3?
Output: NOT MET

Input: Is reported protein stability index greater than or equal to 0.3 here: ASHLGLGCLVVC
Output: MET

Input: Identify whether the reported protein stability index of the following sequence is 0.3 or greater: WVSFYLLFFFSF
Output: MET

Input: Please check the record LGALFGRFWWYF and state if its protein stability index is at or above 0.3.
Output: NOT MET

Input: Hello, I need to know if LGCLVWGGVWGV has measured protein stability index not below 0.3. Thanks!
Output: MET

Input: Say whether RSGWWQWGRPGT shows protein stability index of 0.3 or more.
Output: MET

====

Tested on: Saccharomyces cerevisiae
Experiment: protein stability index of tFT-peptide fusion (C-terminal peptide) (PSI (0-1 scale)); higher = more stable (slower turnover)
Settings: genetic background: das1 deletion; temperature: 37 C
Please use True whenever protein stability index is not below 0.6, and False whenever it is.

Would you please look over these solved cases?
polymer_sequence=SSFFFLFCFFPS group=True
polymer_sequence=IVFFVLFRFWRF group=False
polymer_sequence=PKRNNRKAQQIS group=True
polymer_sequence=GYLFICSWCEGF group=False
polymer_sequence=EDRKRNKERRWT group=True
polymer_sequence=VCMHIVLLAASP group=False

Input: Kindly determine if protein stability index recorded for VLARGFHCMYFC is above or exactly 0.6.
Output: True

Input: Reported protein stability index reaches at least 0.6 for SSVLLMFFCFVC ?
Output: False

Input: I'd appreciate it if you could say whether CVGLYCLFVLLG has protein stability index at least equal to 0.6.
Output: False

Input: Is it the case that FNLTCLLISFFN has protein stability index reaching or exceeding 0.6?
Output: True

Input: Confirm if protein stability index reported for the sequence VLGPRFCFVCHA is 0.6 or above.
Output: True

Input: Confirm if protein stability index reported for the sequence TKGIIKKINIIM is 0.6 or above.
Output: True

Input: Can LEVHGSCIFICV be said to have protein stability index at or above 0.6?
Output: False

Input: Could you verify whether the entry LFFWVLTVMFVW shows protein stability index of no less than 0.6?
Output: False

Input: Please tell me: is the sequence SFLCGCVVCWLW at or over 0.6 in terms of protein stability index?
Output: False

Input: Hi team, for RWRLWGGWWVVG , is the recorded protein stability index at or above 0.6?
Output: True

Input: Please tell me: is the sequence AGTLLLGYGILA at or over 0.6 in terms of protein stability index?
Output: False

Input: Is reported protein stability index greater than or equal to 0.6 here: RLILAIVVSGGL
Output: False

====

System: Saccharomyces cerevisiae
Assay: protein stability index of tFT-peptide fusion (C-terminal peptide) (PSI (0-1 scale)); higher = more stable (slower turnover)
Conditions: genetic background: wild type; temperature: 30 C
Response key: fulfilled means protein stability index >= 0.7; not fulfilled means protein stability index < 0.7.

Recorded results for 8 sequences are shown here.
polymer_sequence="YFNKTEFLLADN [MRPL17 C-terminal 12 aa]" group="not fulfilled"
polymer_sequence="VILSETVVILYY [YKR032W C-terminal 12 aa]" group="not fulfilled"
polymer_sequence="TASFAGSKKTFD [NSR1 C-terminal 12 aa]" group="not fulfilled"
polymer_sequence="KKPSSYVMVPRP [MRPL8 C-terminal 12 aa]" group="not fulfilled"
polymer_sequence="KENLANNEILDN [YKL063C C-terminal 12 aa]" group="not fulfilled"
polymer_sequence="SNNATHNCGNYF [YGR122W C-terminal 12 aa]" group=fulfilled
polymer_sequence="YLAFRLREFNKL [RSC1 C-terminal 12 aa]" group=fulfilled
polymer_sequence="GTVCYGMIEIFF [VTC5 C-terminal 12 aa]" group="not fulfilled"

# ---- query sequence ----
Input: Given RLKPRQIVPKRS [SLI15 C-terminal 12 aa] , state whether its protein stability index is at least 0.7.
Output: fulfilled

Reference source for all entries: the supplement of paper PMC10724198
